Assay: Biodistribution of ^111In-labeled peptides in B16-F1 melanoma-bearing mice
Format: in vivo, mouse (B6D2F1)
Conditions: female, B6D2F1, mouse, pancreas, iv, total radioactivity; ^111In-labeled peptide, 185 kBq i.v., 48 h; mean ± SEM of three experiments, n = 5 animals each; read-out: Pancreas uptake
Non-standard residues stand in square brackets, D forms with d. Residues, ends and D or L forms follow the SMILES beside them. *: point of attachment. DOTA = O=C(O)CN1CCN(CC(=O)O)CCN(CC(=O)*)CCN(CC(=O)O)CC1; pY = N[C@@H](Cc1ccc(OP(=O)(O)O)cc1)C(=O)O; Nle = CCCC[C@H](N)C(=O)O
Recorded measurements of tissue uptake at 48 h, one per entry
MEASURED_ATTRIBUTE: tissue uptake at 48 h (%ID/g)

COMPOUND	REPORTED_MEASUREMENT
CCCC[C@H](NC(=O)[C@H](Cc1ccc(OP(=O)(O)O)cc1)NC(=O)CNC(=O)CN1CCN(CC(=O)O)CCN(CC(=O)O)CCN(CC(=O)O)CC1)C(=O)N[C@@H](CC(=O)O)C(=O)N[C@@H](Cc1c[nH]cn1)C(=O)N[C@H](Cc1ccccc1)C(=O)N[C@@H](CCCNC(=N)N)C(=O)N[C@@H](Cc1c[nH]c2ccccc12)C(N)=O [DOTA-Phospho-MSH2-9] ({DOTA}-G[pY][Nle]DH[dF]RW-NH2)	0.03
CCCC[C@H](NC(C)=O)C(=O)N[C@@H](CC(=O)O)C(=O)N[C@@H](Cc1c[nH]cn1)C(=O)N[C@H](Cc1ccccc1)C(=O)N[C@@H](CCCNC(=N)N)C(=O)N[C@@H](Cc1c[nH]c2ccccc12)C(=O)NCC(=O)N[C@@H](CCCCNC(=O)CN1CCN(CC(=O)O)CCN(CC(=O)O)CCN(CC(=O)O)CC1)C(=O)N[C@H](CC(=O)O)C(=O)N[C@H](CC(=O)O)C(=O)O [DOTA-NAP-D-Asp-D-Asp] (Ac-[Nle]DH[dF]RWGK(DOTA)[dD][dD]-OH)	0.03
CCCC[C@H](NC(C)=O)C(=O)N[C@@H](CC(=O)O)C(=O)N[C@@H](Cc1c[nH]cn1)C(=O)N[C@H](Cc1ccccc1)C(=O)N[C@@H](CCCNC(=N)N)C(=O)N[C@@H](Cc1c[nH]c2ccccc12)C(=O)NCC(=O)N[C@@H](CCCCNC(=O)CN1CCN(CC(=O)O)CCN(CC(=O)O)CCN(CC(=O)O)CC1)C(N)=O [DOTA-NAP-amide, reference compound]	0.02
